# reported Tmax; entries follow
Tested on: Huh-7
test: Prodrug activation in human HuH7 cells infected with HCV genotype 1b assessed as Tmax of beta-D-2'-deoxy-2'-alpha-fluoro-2'-beta-C-methylguanosine triphosphate level at 100 uM
Format: cell-based
reported conditions: huh-7, 100 µM

>  <molecule>
COc1nc(N)nc2c1ncn2[C@@H]1O[C@@H]2COP(=O)(OC3CCC3)O[C@H]2[C@@]1(C)F (stereo not given in full)

>  <Tmax>
48 h

$$$$
>  <molecule>
COc1nc(N)nc2c1ncn2[C@@H]1O[C@@H]2COP(=O)(OC3CCCC3)O[C@H]2[C@@]1(C)F (stereo not given in full)

>  <Tmax>
72 h

$$$$
>  <molecule>
CCOc1nc(N)nc2c1ncn2[C@@H]1O[C@@H]2COP(=O)(OC(C)C)O[C@H]2[C@@]1(C)F (stereo not given in full) [PSI-352938]

>  <Tmax>
96 h

$$$$
>  <molecule>
COc1nc(N)nc2c1ncn2[C@@H]1O[C@H](COP(=O)(N[C@@H](C)C(=O)OC(C)C)Oc2ccccc2)[C@@H](O)[C@@]1(C)F (stereo not given in full)

>  <Tmax>
24 h

$$$$
>  <molecule>
CC(C)Oc1nc(N)nc2c1ncn2[C@@H]1O[C@@H]2COP(=O)(OC3CCCC3)O[C@H]2[C@@]1(C)F (stereo not given in full)

>  <Tmax>
72 h

$$$$

----------
System: Hepatitis C virus
test: Antiviral activity against Hepatitis C virus genotype 1b replicon infected in clone A cells assessed as inhibition of viral replication by RT-PCR analysis
Assay type: functional, Hepacivirus hominis

>  <compound>
CCOc1nc(N)nc2c1ncn2[C@@H]1O[C@@H]2COP(=O)(OC(C)C)O[C@H]2[C@@]1(C)F (some centres undefined) [PSI-352938]

>  <system tested>
Hepatitis C virus

>  <EC90 / nM>
1370

$$$$
>  <compound>
CC(C)Oc1nc(N)nc2c1ncn2[C@@H]1O[C@@H]2COP(=O)(OC(C)C)O[C@H]2[C@@]1(C)F (some centres undefined)

>  <system tested>
Hepatitis C virus

>  <EC90 / nM>
677

$$$$
>  <compound>
COc1nc(N)nc2c1ncn2[C@@H]1O[C@@H]2COP(=O)(OC3CCCC3)O[C@H]2[C@@]1(C)F (some centres undefined)

>  <system tested>
Hepatitis C virus

>  <EC90 / nM>
102

$$$$
>  <compound>
CCCOP1(=O)OC[C@H]2O[C@@H](n3cnc4c(OCC)nc(N)nc43)[C@](C)(F)[C@@H]2O1 (some centres undefined)

>  <system tested>
Hepatitis C virus

>  <EC90 / nM>
13300

$$$$

----------
test: AUClast in rat at 40 mg/kg, po administered QD measured after 7 days
Assay type: ADME, organism-based
Set-up: dose 40 mg/kg, route oral
reported conditions: plasma
observed property: AUC(0-t) at 168 h

>  <compound>
COc1nc(N)nc2c1ncn2[C@@H]1O[C@@H]2COP(=O)(OC3CCCC3)O[C@H]2[C@@]1(C)F (stereo partly drawn)

>  <result>
510 ng·h/mL

$$$$
>  <compound>
CC(C)Oc1nc(N)nc2c1ncn2[C@@H]1O[C@@H]2COP(=O)(OC3CCCC3)O[C@H]2[C@@]1(C)F (stereo partly drawn)

>  <result>
170 ng·h/mL

$$$$
>  <compound>
COc1nc(N)nc2c1ncn2[C@@H]1O[C@@H]2COP(=O)(OC3CCC3)O[C@H]2[C@@]1(C)F (stereo partly drawn)

>  <result>
13900 ng·h/mL

$$$$
